The entries below are paired with their reported activity at 10 µM.
- test.system: Trib2-Luciferase (Luc-Trib2) fusion (Homo sapiens, UniProt Q92519)
- Sequence (Q92519 with tags, fused parts or gaps): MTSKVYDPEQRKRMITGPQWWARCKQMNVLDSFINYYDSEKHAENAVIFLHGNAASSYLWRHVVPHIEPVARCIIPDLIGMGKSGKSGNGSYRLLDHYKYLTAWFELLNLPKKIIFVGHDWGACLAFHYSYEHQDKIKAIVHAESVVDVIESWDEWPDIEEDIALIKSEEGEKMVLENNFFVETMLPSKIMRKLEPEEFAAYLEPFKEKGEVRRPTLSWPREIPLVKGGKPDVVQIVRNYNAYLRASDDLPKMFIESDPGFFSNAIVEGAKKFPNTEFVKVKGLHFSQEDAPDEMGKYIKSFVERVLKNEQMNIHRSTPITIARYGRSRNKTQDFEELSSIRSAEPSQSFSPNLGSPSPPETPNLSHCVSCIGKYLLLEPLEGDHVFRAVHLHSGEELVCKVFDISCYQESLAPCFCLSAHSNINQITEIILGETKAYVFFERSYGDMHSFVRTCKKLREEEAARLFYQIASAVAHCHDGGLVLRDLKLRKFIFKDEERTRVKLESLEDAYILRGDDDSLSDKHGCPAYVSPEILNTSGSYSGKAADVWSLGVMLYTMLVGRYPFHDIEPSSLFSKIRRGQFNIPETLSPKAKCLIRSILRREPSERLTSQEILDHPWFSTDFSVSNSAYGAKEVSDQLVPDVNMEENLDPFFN
- test.summary: cell-based
- test.settings: HFF, read-out: Luciferase activity (%)

| compound | test.system | activity at 10 µM (%) |
| --- | --- | --- |
| C[C@]12CC[C@@H]3c4ccc(O)cc4CC[C@H]3[C@@H]1CCC2=O [Estrone] | Trib2-Luciferase (Luc-Trib2) fusion (Homo sapiens, UniProt Q92519) | 82 |
| CC(C)CN(C[C@@H](O)[C@H](Cc1ccccc1)NC(=O)O[C@H]1CO[C@H]2OCC[C@H]21)S(=O)(=O)c1ccc(N)cc1 [Darunavir] | Trib2-Luciferase (Luc-Trib2) fusion (Homo sapiens, UniProt Q92519) | 93 |
| CCCc1nc(C(C)(C)O)c(C(=O)O)n1Cc1ccc(-c2ccccc2-c2nnn[nH]2)cc1 [Olmesartan] | Trib2-Luciferase (Luc-Trib2) fusion (Homo sapiens, UniProt Q92519) | 80 |
| OB1OCc2cc(F)ccc21 [Tavaborole] | Trib2-Luciferase (Luc-Trib2) fusion (Homo sapiens, UniProt Q92519) | 75 |
| O=C1Nc2ccc(Cl)cc2[C@@](C#CC2CC2)(C(F)(F)F)O1 [Efavirenz] | Trib2-Luciferase (Luc-Trib2) fusion (Homo sapiens, UniProt Q92519) | 89 |
| O=c1[nH]c(=O)n(C2CCCO2)cc1F (centres unmarked) [Tegafur] | Trib2-Luciferase (Luc-Trib2) fusion (Homo sapiens, UniProt Q92519) | 100 |
| COc1ccccc1OCC(O)CN1CCN(CC(=O)Nc2c(C)cccc2C)CC1 (centres unmarked) [Ranolazine] | Trib2-Luciferase (Luc-Trib2) fusion (Homo sapiens, UniProt Q92519) | 100 |
| Cn1c([N+](=O)[O-])cnc1COC(N)=O [Ronidazole] | Trib2-Luciferase (Luc-Trib2) fusion (Homo sapiens, UniProt Q92519) | 100 |
| Cc1c(OCC(F)(F)F)ccnc1C[S+]([O-])c1nc2ccccc2[nH]1 (centres unmarked) [Lansoprazole] | Trib2-Luciferase (Luc-Trib2) fusion (Homo sapiens, UniProt Q92519) | 78 |
| CC[C@]12CCCN3CCc4c(n(c5ccccc45)[C@@](O)(C(=O)OC)C1)[C@@H]32 [Vincamine] | Trib2-Luciferase (Luc-Trib2) fusion (Homo sapiens, UniProt Q92519) | 80 |
| COc1ccc2c(c1OC)C(=O)O[C@@H]2[C@H]1c2c(cc3c(c2OC)OCO3)CCN1C [Noscapine] | Trib2-Luciferase (Luc-Trib2) fusion (Homo sapiens, UniProt Q92519) | 100 |
| Cc1cccc(C)c1OCC(C)N (centres unmarked) [Mexiletine] | Trib2-Luciferase (Luc-Trib2) fusion (Homo sapiens, UniProt Q92519) | 86 |
| Nc1ccc(S(=O)(=O)Nc2ncccn2)cc1 [Sulfadiazine] | Trib2-Luciferase (Luc-Trib2) fusion (Homo sapiens, UniProt Q92519) | 70 |
| OC1(c2ccc(Cl)c(C(F)(F)F)c2)CCN(CCCC(c2ccc(F)cc2)c2ccc(F)cc2)CC1 [Penfluridol] | Trib2-Luciferase (Luc-Trib2) fusion (Homo sapiens, UniProt Q92519) | 71 |
| OCCN(CCO)c1nc(N2CCCCC2)c2nc(N(CCO)CCO)nc(N3CCCCC3)c2n1 [Dipyridamole] | Trib2-Luciferase (Luc-Trib2) fusion (Homo sapiens, UniProt Q92519) | 98 |
| COc1cc([C@@H]2c3cc4c(cc3[C@@H](O[C@@H]3O[C@@H]5CO[C@@H](c6cccs6)O[C@H]5[C@H](O)[C@H]3O)[C@H]3COC(=O)[C@H]23)OCO4)cc(OC)c1O [Teniposide] | Trib2-Luciferase (Luc-Trib2) fusion (Homo sapiens, UniProt Q92519) | 70 |
| CN1C[C@@H]2C[C@H]1CN2c1cc2c(cc1F)c(=O)c(C(=O)O)cn2C1CC1 [Danofloxacin] | Trib2-Luciferase (Luc-Trib2) fusion (Homo sapiens, UniProt Q92519) | 81 |
